Quick reference: growth inhibition of the listed items.
# measurementNotes: HT29 colon tumor cell growth inhibition, primary screen, imaging, high content imaging, 24 h, CellTiter-Glo (AID 770)
# assaySetup: HT29 cell number by imaging, at 10 µM, hits give high values
Fewer than 10 of roughly 3,300 compounds were called active. Not all results are given here.

| compound | growth inhibition (%) |
| --- | --- |
| CN(C)C(=O)COn1c(SCC(=O)N(C)C)nc2ccccc2c1=O | 100 |
| Cc1c(/C(O)=C2\C(=O)C(=O)N(CCN(C)C)C2c2cccnc2)cnn1-c1ccccc1 (stereo not given) | 65.4 |
| COc1ccc(OC)c(NC(=O)CSc2nnc(-c3ccco3)n2-c2ccc(C(=O)O)cc2)c1 | 5.68 |
| O=C(C/C(=N/O)c1ccccc1O)C(F)F | -0.96 |
| CC1(C)CC(=O)C2=C(C1)N(Cc1ccco1)C(=O)C2(O)C(F)(F)F (stereo not given) | 11 |
| CCOP(=O)(c1ccccc1)C1(C#N)CCCC1 (stereo not given) | -30.7 |
| Cc1[nH]c(=O)[nH]c(=O)c1S(=O)(=O)N1CCCC1 | 7.67 |
| COc1nc(NS(=O)(=O)c2ccc(C)cc2)nc(C)c1Cl | 9.89 |
| CCN(CC)CCCn1c(C)cc2c(c1=O)C(c1ccccc1)C(C#N)=C(N)O2 (stereo not given) | 3.77 |
| Cc1ccc(N2C(=O)CC(Cn3nc(C)cc3C)C2=O)cc1 (stereo not given) | 5.93 |
| COc1cccc(NC(=O)c2cc(C(=O)Nc3cccc(OC)c3)n(C)n2)c1 | -5.68 |
| CCCOc1ccc(/C(O)=C2/C(=O)C(=O)N(CCN(C)C)C2c2ccncc2)cc1 (stereo not given) | -14 |
| CCCOc1ccc(Cc2nn[nH]n2)cc1 | 36.3 |
| CCOc1cc(C2Nc3ccccc3C(=O)N2c2ccccc2OC)ccc1O (stereo not given) | 1.14 |
| N#CC1=C(SCC(=O)c2ccc(Cl)cc2)NC2=C(C(=O)CCC2)C1c1ccco1 (stereo not given) | 64.2 |
| CCN(CC)C(=O)COn1c(SCC(=O)N(CC)CC)nc2ccccc2c1=O | 28.8 |
| Cn1c(=O)c2c(nc(Br)n2CCSc2ncccn2)n(C)c1=O | 17.9 |
| O=C(c1cccc2ccccc12)N1CCC(N2CCN(c3ccccc3)CC2)CC1 | -27.1 |
| Cn1ncc2nc[nH]c(=O)c21 | 27.4 |
| CC12CN3CC(C)(CN(C1)C3c1ccc(Cl)cc1Cl)C2O (stereo not given) | 15 |
| CCN(CC)CCNc1nc(-c2ccco2)c2c(c1C#N)CC(C)(C)OC2 | 0.38 |
| O=S(=O)(c1cccc2nsnc12)N1CCN(C/C=C/c2ccccc2)CC1 | -27 |
| COc1ccc(OC)c(C2/C(=C(\O)c3ccc(OC)c(Cl)c3)C(=O)C(=O)N2CCN(C)C)c1 (stereo not given) | -11.2 |
| CC(C)CC(C(=O)O)C(C)CC(=O)Nc1ccn(-c2ccccc2)n1 (stereo not given) | 23.8 |
| N#CC1=C2SCC(O)(c3ccccc3)N2C(=O)CC1c1ccccc1 (stereo not given) | 90.7 |
| O=C1OC(Nc2ccc(Br)cn2)c2ccccc21 (stereo not given) | -21.1 |
| CCN(CC)CCNc1nc2c(c(=O)[nH]c(=O)n2C)n1CCOc1ccccc1 | -28.8 |
| Nc1nonc1-c1noc(N2CCOCC2)n1 | -12.5 |
| O=C1CC(C(=O)O)c2ccccc2N1 (stereo not given) | 10.3 |
| Nc1nnnn1CC(=O)OCc1cccc(Br)c1 | -17.1 |
| CCOc1ccc(/C(O)=C2/C(=O)C(=O)N(CCN(CC)CC)C2c2ccco2)cc1 (stereo not given) | -44.4 |
| Cc1ccc(NC(=O)Cn2nc(C)c3ccccc3c2=O)cc1 | -20 |
| CN1CCc2c(n(CC(O)CN3C(=O)c4ccccc4S3(=O)=O)c3ccccc23)C1=O (stereo not given) | 3.96 |
| Cn1c(NCC(O)c2ccccc2)nc2c1c(=O)n(Cc1ccc(Cl)c(Cl)c1)c(=O)n2C (stereo not given) | 46.1 |
| COc1cccc2c1C(=O)c1c(O)c3c(c(O)c1C2=O)C[C@@](O)(C(C)=O)C[C@@H]3O[C@H]1C[C@H](N)[C@H](O)[C@H](C)O1 | 96.9 |
| CCCc1nc2n[nH]c(N)c2c2c1CCCC2 | 3.73 |
| O=C(C1=C(O)C(=O)N(CCCN2CCOCC2)C1c1ccccn1)c1cc2ccccc2o1 (stereo not given) | -11.4 |
| CC(C)c1ccc(O)c(N)c1 | -26.1 |
| Cc1ccc(N2C(=O)CC3(CC4C=CC3C4)C2=O)cc1 (stereo not given) | -2.66 |
| Cc1cc(C)n(Cc2cc(C)c(Cn3nc(C)cc3C)cc2C)n1 | -26.1 |
| Cc1cc(OCC(=O)Nc2ccc3oc(-c4ccncc4)nc3c2)ccc1Cl | -2.56 |
| Nc1ccc2oc(-c3ccccc3Cl)nc2c1 | 26.7 |
| COc1ccc(S(=O)(=O)N2CCC(N3CCCCC3)CC2)cc1 | -21.4 |
| Cc1cc(Cn2ccnc2)c(C)cc1Cn1ccnc1 | 13.6 |
| CCOC(=O)c1[nH]c2cc3c(cc2c1NC(=O)CN1CCC(C)CC1)OCO3 | 37.9 |
